- Tested on: TK-10
- Procedure summary: NCI tumour cell line growth inhibition, 48 h
The source made the active and inactive calls. Cut-off read from the data, not from the text of the source: active = GI50 up to about 1.1 µM and inactive = higher.
Result type: GI50

The examples below pair each entry with its known result.
COCC(C#N)NC1CC(OC2CC(O)(C(=O)CO)Cc3c(O)c4c(c(O)c32)C(=O)c2c(OC)cccc2C4=O)OC(C)C1O (centres undefined)	0.19 µM (active)
CN(C)c1n/c(=N/c2ccc3ccccc3c2)ss1	14.1 µM (inactive)
COc1ccc(Cn2c3c(cc(OC(C)=O)c2=O)Cc2ccccc2-3)cc1	13.1 µM (inactive)

Switching to the query record.
Would you kindly share the measured GI50 for COc1cc(C(=O)N(C(=S)OCc2ccccn2)c2ccccc2)cc(OC)c1OC ? 70.8 µM (inactive)

----------
GI50 reference
- Tested on: SK-MEL-5
- Procedure summary: NCI tumour cell line growth inhibition, 48 h
Calls of active or inactive are those of the source. No stated cut-off is given here; in the data, active = GI50 up to about 1.1 µM and inactive = higher.

Solved cases below.
CC(=O)c1cccc(Nc2nc3ccc(Cl)cc3c3[nH]c4ccccc4c23)c1	1.44 µM (inactive)
CC1=NN(c2nc(N)nc(CO)n2)C(C)(C)C1	> 100 µM (inactive)
Cc1ncc([N+](=O)[O-])n1CCNC(=O)CCCCCn1ccnc1[N+](=O)[O-]	> 100 µM (inactive)
CC(=O)O[C@H]1C(=O)[C@@]2(C)[C@H]([C@H](OC(=O)c3ccccc3)[C@@]3(O)C[C@H](O)C(C)=C1C3(C)C)[C@]1(OC(C)=O)CO[C@@H]1C[C@@H]2O	35.8 µM (inactive)
O=c1c(C(c2ccc(OCc3ccccc3)cc2)c2c(O)oc3ccccc3c2=O)c(O)oc2ccccc12	29.6 µM (inactive)

# ---- query compound ----
Need GI50 of C[C@H](N[C@H]1CCC[C@]1(O)C#Cc1ccc2c(c1)OCO2)c1ccccc1 , thanks. 22.6 µM (inactive)

----------
- Tested on: NCI-H23
- Procedure summary: NCI tumour cell line growth inhibition, 48 h
Active and inactive are the calls of the source. No stated cut-off is given here; in the data, active = GI50 up to about 1.1 µM and inactive = higher.
In this exercise, the only acceptable responses are active, inactive

Which outcome did this test record for the compound CC(=O)c1ccc(-c2ccc(C(C)=O)s2)s1 ? inactive

Further, for O=[N+]([O-])c1ccc2oc(=N/c3ccccc3)/c(=N\c3ccccc3)[nH]c2c1 ? inactive

----------
- System: COLO 205
- Procedure summary: NCI tumour cell line growth inhibition, 48 h
Calls of active or inactive are those of the source. Cut-off read from the data, not from the text of the source: active = GI50 up to about 1.1 µM and inactive = higher.
In this section we review reported GI50 values for a set of compounds.

O=c1c(C(c2ccc(OCc3ccccc3)cc2)c2c(O)oc3ccccc3c2=O)c(O)oc2ccccc12	46 µM (inactive)
Cc1cc(C)nc(NS(=O)(=O)c2ccc(Nc3c4ccccc4nc4c(C(=O)NCCN(C)C)cccc34)cc2)n1	1.86 µM (inactive)
C1=N\CCN2CCN(CC/N=C\c3ccccc3OCc3cccc(n3)COc3ccccc3/1)CC2	19.6 µM (inactive)
N/N=C(\CCN1CCCC1)CC(c1ccccc1)c1c(O)c2ccccc2oc1=O (configuration not stated)	> 100 µM (inactive)
CCCCNN	> 100 µM (inactive)

Please tell me: GI50 of COc1cc(CCc2ccncc2)cc(OC)c1OC , system COLO 205? > 100 µM (inactive)

Likewise for CCCCn1cnc2c(SC)ncnc21 ? > 100 µM (inactive)

----------
- System: NCI-H522
- Procedure summary: NCI tumour cell line growth inhibition, 48 h
Activity calls are given as the source filed them. No stated cut-off is given here; in the data, active = GI50 up to about 1.1 µM and inactive = higher.
Could you please pick one outcome from this set? active, inactive

COc1cc2c(cc1O)NC(=O)[C@@H]1CCCN1C2=O	inactive
O=c1c(C(c2ccc(OCc3ccccc3)cc2)c2c(O)oc3ccccc3c2=O)c(O)oc2ccccc12	inactive
Cc1occ2c1C(=O)CC1C2[C@@H](O)CC2C(C)(C)CCC[C@]12C (stereo partly specified)	inactive
O=c1cc(NNc2ccccc2)[nH]c(=S)[nH]1	inactive
CN(C)CCn1c2c3ccccc3ccc2c2oc(=O)c3ccccc3c21	inactive
Oc1cc(O)cc(-c2nc3cc(F)ccc3s2)c1	inactive

Moving on to the next compound.
Per the assay record, what outcome was assigned to CC(C)[C@H]1NC(=O)[C@H]2N=C(O[C@@H]2C)[C@@H]2CCCN2C(=O)[C@H](Cc2ccccc2)NC(=O)[C@@H]2CSC(=N2)[C@@H](Cc2ccccc2)NC(=O)[C@@H]2CSC1=N2 ? inactive

----------
# GI50 per record follows
- Test system: MDA-MB-231
- Procedure summary: NCI tumour cell line growth inhibition, 48 h
Active and inactive are the calls of the source. Rule as the data show it: active = GI50 up to about 1.1 µM and inactive = higher.

COC(=O)c1cc(C#N)[nH]c1-c1ccc(Br)s1	14.5 µM (inactive)
CCc1ccc2nccc(NCCCN(C)C)c2c1[N+](=O)[O-]	56.1 µM (inactive)

Please examine the following record next.
Data request, read-out GI50, for N#Cc1c(N)nc(S)c(C#N)c1-c1ccccc1 > 100 µM (inactive)

----------
# GI50 per entry
- Tested on: PC-3
- Procedure summary: NCI tumour cell line growth inhibition, 48 h
Activity calls are given as the source filed them. Rule as the data show it: active = GI50 up to about 1.1 µM and inactive = higher.

Cc1cccc(NC(=O)CC(=O)N2N=C(N3c4ccccc4Sc4ccccc43)CC2c2ccccc2)c1 (stereo not drawn)	> 100 µM (inactive)

GI50 for O=C1/C(=C2\Sc3c(ccc(Cl)c3Cl)C2=O)Sc2c1ccc(Cl)c2Cl ? > 100 µM (inactive)

Moving on to the next molecule: N=C(N)NS(=O)(=O)c1ccc(NC(=O)c2c3ccccc3nc3ccccc23)cc1 > 100 µM (inactive)

----------
- Test system: Malme-3M
- Procedure summary: NCI tumour cell line growth inhibition, 48 h
The source made the active and inactive calls. Rule as the data show it: active = GI50 up to about 1.1 µM and inactive = higher.
Result type: GI50

Please review the following examples before continuing.
CCOC(=O)c1c(/C=N\Nc2ccccc2)nc2ccccc2c1-c1ccccc1	35.1 µM (inactive)
O=C1NC(=S)N(c2ccccc2)C1=O	> 100 µM (inactive)

# input for lookup
# input molecule: CCO/C=N\c1c(C#N)c(-c2ccc(Cl)cc2)cn1-c1ccc(C)cc1 ; wanted: its GI50 > 100 µM (inactive)

----------
- System: SF-268
- Procedure summary: NCI tumour cell line growth inhibition, 48 h
Activity calls are given as the source filed them. Rule as the data show it: active = GI50 up to about 1.1 µM and inactive = higher.
Your answer must be one of the following: yes (1) for active, no (0) for inactive

// known answers, use as guide
Nc1nc(Cl)nc2c1ncn2C1CC(O)C(CO)O1 (configuration not stated)	no (0)
Nc1nc2cc3nc(N)c(N)nc3cc2nc1N	no (0)
O=C(N/C(=C\c1ccc(/C=C(\NC(=O)c2ccccc2)c2nc3ccccc3[nH]2)cc1)c1nc2ccccc2[nH]1)c1ccccc1	no (0)
CCOC(=O)Cc1csc(Nc2ccccc2[N+](=O)[O-])n1	no (0)

State the result this test recorded for CCOP(=O)(OCC)/C(C#N)=C/c1[nH]cnc1C . no (0)

And what about the compound CC(=O)OCC1OC(N2C(c3ccccc3)=CC(c3ccccc3)C(C#N)=C2S)C(OC(C)=O)C(OC(C)=O)C1OC(C)=O (configuration not stated) ? no (0)

Now the compound CCc1ccc2nccc(NCCCN(C)C)c2c1[N+](=O)[O-] no (0)

Request: N=c1oc2ccccc2cc1C(=O)Nc1cccc2ccccc12 no (0)

Try this compound next: C=CCn1c(-c2ccc(/N=N/Nc3ccc(-c4n[nH]c(=S)n4CC=C)cc3)cc2)n[nH]c1=S no (0)

Clc1ccc(/C=N/c2ccc3c(c2)Cc2ccccc2-3)c(Cl)c1 ? no (0)

Input COC(=O)[C@@H]1C(=O)O[C@@H](c2cc(OC)c(OC)cc2OC)[C@@H]1C(=O)OC.COC(=O)[C@H]1C(=O)O[C@@H](c2cc(OC)c(OC)cc2OC)[C@@H]1C(=O)OC no (0)

Cool, now COc1cc2cccc(/N=C\c3ccccc3Cl)c2cc1OC no (0)

Let us now turn to COC(=O)C(Cc1ccc2c(c1)OCO2)(NC(=O)c1ccccc1)P(=O)(OC)OC (configuration not stated) no (0)

Next entry: c1ccc2c(c1)Cc1c(Cc3csc4ccccc34)ccc3cccc-2c13 no (0)

Same again, this time with O=C1C2CC(Cl)C(SSC3CC4C(=O)N(SC(Cl)(Cl)C(Cl)Cl)C(=O)C4CC3Cl)CC2C(=O)N1SC(Cl)(Cl)C(Cl)Cl (configuration not stated) no (0)

Field entry: Cc1cccc(NC(=O)CSc2nnc(Cc3ccccc3)o2)c1 no (0)

Could you do the same for Cc1cnc2[nH]c(-c3cccc(F)c3)cc(=O)c2c1 , please? yes (1)

----------
- System: NCI/ADR-RES
- Procedure summary: NCI tumour cell line growth inhibition, 48 h
Activity calls are given as the source filed them. No stated cut-off is given here; in the data, active = GI50 up to about 1.1 µM and inactive = higher.
Result type: GI50

CC(=O)O[C@@H]1C2=C(C)C=C(O2)[C@H]2O[C@]2(C)C[C@H]2C=C(C(=O)O2)[C@H](OC(C)=O)CC1[C@@]1(C)CO1 (stereo not given in full)	29.4 µM (inactive)
CC(=O)c1c(-c2ccccc2)c(-c2ccc(OCCN(C)C)cc2)n2ccccc12	14.5 µM (inactive)

Form: Entry = S=C1NCCN1C(=S)NC1CCCCC1 | System = NCI/ADR-RES | GI50 = ____ 29.2 µM (inactive)

Also, CN1CCN(CC(=O)N2CCCn3c2nc2ccccc2c3=O)CC1 please. > 100 µM (inactive)

Same question, Cc1cc(=O)oc2c(C)c3oc(CBr)cc3cc12 this time 19.4 µM (inactive)
